Hey, just so you know, these numbers are from paper PMC7819943.

Target: OsWOX13 (Oryza sativa, UniProt Q5QMM3 1-267)
Sequence: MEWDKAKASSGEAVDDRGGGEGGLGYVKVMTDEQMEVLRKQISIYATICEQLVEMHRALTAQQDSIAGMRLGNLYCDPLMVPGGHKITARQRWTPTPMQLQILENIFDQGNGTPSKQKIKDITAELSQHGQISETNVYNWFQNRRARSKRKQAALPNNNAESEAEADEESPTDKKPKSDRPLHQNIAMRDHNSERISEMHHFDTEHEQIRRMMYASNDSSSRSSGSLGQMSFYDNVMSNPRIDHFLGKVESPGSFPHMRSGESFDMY
Test: protein-binding microarray (RPBM); PBS, 2% BSA, 51.3 ng/ul salmon testes DNA, 50 uM zinc acetate, 200 nM TF, 25 C, 1 h; high values mean tight binding
Details: protein: recombinant; tags: N-terminal polyhistidine and DsRed monomer fusion (pET32a); label: CyDye5-dUTP incorporated in the synthesized complementary strand; 3' TTTTT single-stranded linker to array surface; dsDNA, one strand shown
Whole data set: some 35,000 sequences, median “fluorescence intensity (a.u.)” near 10,000, cut for the highest 2% near 52,000. This is one part of a sample in which the highest values are shown more often than they occur.
# Lookup of reported binding signal keyed by entry
reported.metric: binding signal

monomer.sequence | endpoint.value
GCCATATGATTATTTAATCTGATCCGGAGGATTAAACAAGCGGAGTCACCTAGTGCAG | 14100 fluorescence intensity (a.u.)
TATTAATTTAATAAAATTAATTTGGTAATGTAAATATTATCGGAGTCACCTAGTGCAG | 15600 fluorescence intensity (a.u.)
TAAATTATTTTCTATTTATAAATATGTCGTTTGCCTTATTCGGAGTCACCTAGTGCAG | 4180 fluorescence intensity (a.u.)
TGCAGTGATAATTTAGGATTATTTAAGATTTGCACAGTGGCGGAGTCACCTAGTGCAG | 12500 fluorescence intensity (a.u.)
